Just for reference, patent US12606541B2 is where these values come from.

# System Tested: His6-TEV-PPARγ-(234-505) (Homo sapiens, UniProt P37231)
# Construct: The His6-TEV-PPARγ-(234-505) protein for assay was expressed and purified; TEV cleavage site (N); made in house
# Sequence (P37231 234-505): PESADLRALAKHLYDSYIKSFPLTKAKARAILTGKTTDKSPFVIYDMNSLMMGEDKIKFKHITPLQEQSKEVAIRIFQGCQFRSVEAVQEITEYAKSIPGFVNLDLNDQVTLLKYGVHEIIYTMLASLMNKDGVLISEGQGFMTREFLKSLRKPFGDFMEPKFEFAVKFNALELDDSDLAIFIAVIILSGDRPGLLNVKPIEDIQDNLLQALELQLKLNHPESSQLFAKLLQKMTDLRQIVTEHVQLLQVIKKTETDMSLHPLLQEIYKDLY
# Measurement Protocol: TR-FRET Assay to Measure Co-R Peptide Recruitment to PPARγ
# Type: biochemical
# Stated Conditions: Co-R peptide (SMRT-ID2) recruitment; top final concentration 20 μM; read-out: TR-FRET i-Ag; AC50
Quantity: AC50

Compound: COc1cc(-c2cc(C(=O)N3CC[C@H](C(=O)NC4CCN(c5cnnc(C)c5)C4)CC34CC4)n[nH]2)c(F)cn1 (single isomer, unassigned) [Example 452-B]
System Tested: His6-TEV-PPARγ-(234-505) (Homo sapiens, UniProt P37231)
Quantity: AC50
Experimental Result: 142 nM
//
Compound: COc1cc(-c2cc(C(=O)N3CCC(C(=O)NC4CCN(C5COC56CNC6)C4)CC34CC4)n[nH]2)c(F)cn1 (mixture of isomers)
System Tested: His6-TEV-PPARγ-(234-505) (Homo sapiens, UniProt P37231)
Quantity: AC50
Experimental Result: 440 nM
//
Compound: COc1cc(-c2cc(C(=O)N3CCC(C(=O)NCc4ncc(Cl)cn4)CC3)n[nH]2)c(Cl)cn1
System Tested: His6-TEV-PPARγ-(234-505) (Homo sapiens, UniProt P37231)
Quantity: AC50
Experimental Result: 501 nM
//
Compound: CCc1cc(-c2cc(C(=O)N3CCC(C(=O)NCc4cccc(Cl)c4)CC3)n[nH]2)c(Cl)cn1
System Tested: His6-TEV-PPARγ-(234-505) (Homo sapiens, UniProt P37231)
Quantity: AC50
Experimental Result: 23.4 nM
//
Compound: COc1cc(-c2cc(C(=O)N3CCC(C(=O)NCC4CCNCC4(F)F)CC34CC4)n[nH]2)c(F)cn1 (mixture of isomers)
System Tested: His6-TEV-PPARγ-(234-505) (Homo sapiens, UniProt P37231)
Quantity: AC50
Experimental Result: 10.6 nM
//
Compound: COc1cc(-c2cc(C(=O)N3[C@@H]4CC[C@H]3C[C@H](C(=O)N[C@H]3CC[C@@](O)(C(F)(F)F)CC3)C4)n[nH]2)c(F)cn1 (single isomer, unassigned)
System Tested: His6-TEV-PPARγ-(234-505) (Homo sapiens, UniProt P37231)
Quantity: AC50
Experimental Result: 4.7 nM
